These measurements were taken from PubChem BioAssay AID686979.

assay-info: qHTS for Inhibitors of human tyrosyl-DNA phosphodiesterase 1 (TDP1): qHTS in cells in presence of CPT; also: nearly all actives have a fitted effect of over 55% in size; also: potency is read from the fitted curve at half-maximal effect
study-conditions: chicken DT40 Tdp1-/-;hTDP1 cells + 20 nM CPT, ATP luminescence, 48 h; series mostly up to 46.2 µM
Hit rate of the full screen: of about 420,000 compounds, about 50,000 (12%) were called active. Not shown: some 26% with an inconclusive outcome. Shown is part of a subset that was picked to be rich in actives.

compound | Potency
CC(C)c1nc2cc(C(=O)NC(C)c3cnn(C)c3)ccc2o1 (stereo not given) | inactive
CN(C)CCCN(C(=O)c1ccc(S(=O)(=O)N2CCCCCC2)cc1)c1nc2ccc(Br)cc2s1 | 11.6 µM (active)
CCOc1ccc2nc(N(CCN(C)C)C(=O)c3ccc4ccccc4c3)sc2c1 | inactive
O=c1[nH]c2ccccc2s1 | inactive
CCN(CC)CCN(C(=O)c1ccc(S(=O)(=O)N2CCOCC2)cc1)c1nc2cc3c(cc2s1)OCCO3 | inactive
